// provenance: the RNAGym collection of RNA variant scans (doi:10.7554/elife.80360)

B1: HDV Ribozyme (parent)
chain: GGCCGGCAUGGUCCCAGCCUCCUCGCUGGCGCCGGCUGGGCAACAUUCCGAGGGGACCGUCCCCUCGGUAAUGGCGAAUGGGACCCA

variants of: B1; experiment: self-cleavage, relative activity (ratio to wild type); higher = more cleavage; co-transcriptional
readoutKind: self-cleavage

U9G U60A: 0.831

Query :: Bench note: what self-cleavage did G68U G73A show?
Result :: 0.481

Query :: Bench note: what self-cleavage did C58U C66U show?
Result :: 0.911
